As shown below, each of these molecules has a reported kd value.
ASSAY_TARGET: T1, hIL-11Rα (Homo sapiens, UniProt Q14626)
T1 sequence (Q14626 23-422): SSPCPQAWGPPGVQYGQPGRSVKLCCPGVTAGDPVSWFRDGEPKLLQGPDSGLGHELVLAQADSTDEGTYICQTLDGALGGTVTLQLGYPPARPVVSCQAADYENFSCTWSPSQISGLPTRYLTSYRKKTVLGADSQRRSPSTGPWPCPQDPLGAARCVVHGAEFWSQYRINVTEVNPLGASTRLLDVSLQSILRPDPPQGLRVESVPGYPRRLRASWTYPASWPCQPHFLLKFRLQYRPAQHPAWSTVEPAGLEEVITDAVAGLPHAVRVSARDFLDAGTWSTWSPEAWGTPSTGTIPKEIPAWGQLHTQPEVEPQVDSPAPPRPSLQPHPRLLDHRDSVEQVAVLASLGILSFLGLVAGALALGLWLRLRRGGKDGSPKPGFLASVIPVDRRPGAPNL
PROCEDURE_TEXT: Kinetic binding analysis by biolayer interferometry (protein G biosensors, Octet RED96e)

MOLECULE: mAb12: anti-IL-11Rα antibody, human IgG4 (S228P), kappa; VH SEQ ID NO: 215, VL SEQ ID NO: 216 (antibody, V domains shown, IgG4 S228P kappa constant regions; mAb12 VH Chain; mAb12 VL Chain) VH: EVQLLESGGGLVQPGGSLRLSCAASGFTFSWYSMTWVRQAPGKGLEWVSSIVPYGDLTQYADSVKGRFTISRDNSKNTLYLQMNSLRAEDTAVYYCAKGPGWYSFDLWGRGTLVTVSS VL: DIQMTQSPSSLSASVGDRVTITCQASQDINNYLNWYQQKPGKAPKLLIYDASNLQTGVPSRFSGSGSGTDFTFTISSLQPEDIATYYCQQHESQSPTFGPGTKVDIK
OBSERVATION_TYPE: kd
VALUE_REPORTED: <1e-07 s⁻¹

Now look at this one.
Look at this molecule and give its reported kd. mAb13: anti-IL-11Rα antibody, human IgG4 (S228P), kappa; VH SEQ ID NO: 217, VL SEQ ID NO: 218 (antibody, V domains shown, IgG4 S228P kappa constant regions; mAb13 VH Chain; mAb13 VL Chain) VH: EVQLLESGGGLVQPGGSLRLSCAASGFTFSWYSMTWVRQAPGKGLEWVSSIVPYGDLTQYADSVKGRFTISRDNSKNTLYLQMNSLRAEDTAVYYCAKPEDWGRFDLWGRGTLVTVSS VL: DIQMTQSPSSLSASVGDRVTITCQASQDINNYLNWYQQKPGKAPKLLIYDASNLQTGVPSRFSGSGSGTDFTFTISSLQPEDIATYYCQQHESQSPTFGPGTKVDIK
<1e-07 s⁻¹
